Biological target: Glutamate NMDA receptor
Test: The compound was tested in vitro for the displacement of the radioligand (+)-[3H]-MK-801 from synaptic plasma membranes from rat cortex against N-methyl-D-aspartate glutamate receptor
Type: cell-free
IC50 values, listed per item
READOUT TYPE: IC50 (nM)

>>> number("C[C@H](N)CC(c1cccc(F)c1)c1cccc(F)c1")
762
>>> number("CC(N)CC(c1cccc(F)c1)c1cccc(F)c1 (stereo not drawn)")
1040
>>> number("C[C@@H](N)CC(c1cccc(F)c1)c1cccc(F)c1")
4500
